Target: human TLR7 (Homo sapiens)
Construct: host or cells: HEK-Blue hTLR7 (HEK293-derived reporter cells)
Sequence (Q9NYK1 27-1049): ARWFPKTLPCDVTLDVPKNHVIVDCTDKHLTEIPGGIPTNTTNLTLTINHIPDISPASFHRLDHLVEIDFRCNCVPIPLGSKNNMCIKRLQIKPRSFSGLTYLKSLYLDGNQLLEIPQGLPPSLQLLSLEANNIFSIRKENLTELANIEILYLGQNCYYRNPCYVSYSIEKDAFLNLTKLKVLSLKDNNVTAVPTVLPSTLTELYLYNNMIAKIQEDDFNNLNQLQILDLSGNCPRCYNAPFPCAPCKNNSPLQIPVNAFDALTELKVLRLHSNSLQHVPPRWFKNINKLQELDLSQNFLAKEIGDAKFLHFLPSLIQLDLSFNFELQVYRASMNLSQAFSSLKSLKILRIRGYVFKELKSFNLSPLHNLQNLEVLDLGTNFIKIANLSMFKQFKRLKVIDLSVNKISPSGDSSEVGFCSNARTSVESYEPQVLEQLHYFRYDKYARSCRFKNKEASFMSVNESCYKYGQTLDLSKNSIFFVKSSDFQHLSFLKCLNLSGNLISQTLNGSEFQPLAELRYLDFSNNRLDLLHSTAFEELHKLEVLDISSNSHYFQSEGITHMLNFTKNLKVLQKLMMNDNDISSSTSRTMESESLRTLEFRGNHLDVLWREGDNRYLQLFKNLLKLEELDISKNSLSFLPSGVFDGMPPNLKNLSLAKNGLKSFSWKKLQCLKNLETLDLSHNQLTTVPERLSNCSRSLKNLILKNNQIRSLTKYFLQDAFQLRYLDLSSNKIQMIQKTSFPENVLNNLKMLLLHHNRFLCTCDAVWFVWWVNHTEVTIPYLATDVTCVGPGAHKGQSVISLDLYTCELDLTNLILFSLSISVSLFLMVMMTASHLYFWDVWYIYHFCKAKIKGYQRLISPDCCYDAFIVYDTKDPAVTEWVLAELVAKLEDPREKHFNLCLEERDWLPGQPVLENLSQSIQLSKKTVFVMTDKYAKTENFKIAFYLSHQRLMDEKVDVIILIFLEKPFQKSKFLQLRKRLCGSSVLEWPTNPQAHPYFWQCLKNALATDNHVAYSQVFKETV
Experiment: HEK-Blue hTLR7 SEAP reporter gene agonist assay
Type: cell-based
Conditions: HEK-Blue hTLR7 cells, 16 to 22 hours incubation
metric: EC50
Respond with a number, then the unit of measure.

Asked: Would you kindly share the measured EC50 for CCC[C@@H](CO)Nc1nc(N)nc2ccn(Cc3ccc(CN4CCCC4)cc3)c(=O)c12 ?
Given back: 44 nM

Asked: Return reported EC50; argument: CCC[C@@H](C)Nc1nc(N)nc2ccn(Cc3ccc(CN4CCNCC4)cc3OC)c(=O)c12
Given back: 96 nM

Asked: Can you share its EC50? I mean this molecule: CCC[C@@H](C)Nc1nc(N)nc2ccn(Cc3ccc(CN(CCO)CCO)cc3OC)c(=O)c12
Given back: 30 nM

Asked: Would you kindly share the measured EC50 for CCC[C@@H](C)Nc1nc(N)nc2ccn(Cc3ccc(C(=O)N4CCN(C)CC4)cc3OC)c(=O)c12 ?
Given back: 54 nM

Asked: Value lookup for EC50; key = CCCC(CCO)Nc1nc(N)nc2ccn(Cc3ccc(CN4CCCC4)cc3)c(=O)c12 (stereo not shown)
Given back: 65 nM

Asked: Given the molecule CCC[C@@H](C)Nc1nc(N)nc2ccn(Cc3ccc(CNC)cc3OC)c(=O)c12 , what is its reported EC50?
Given back: 100 nM

Asked: Recorded EC50 for CCCCNc1nc(N)nc2ccn(Cc3ccc(CN4CCCC4)cc3F)c(=O)c12 , please?
Given back: 98 nM

Asked: Quick one: EC50 of CCC[C@@H](C)Nc1nc(N)nc2ccn(Cc3ccc(C(=O)N4CCN(C(C)C)CC4)cc3OC)c(=O)c12 ?
Given back: 91 nM

Asked: Which EC50 is reported for this molecule? CCCC[C@@H](CO)Nc1nc(N)nc2ccn(Cc3ccc(CN4CCCC4)cc3OC)c(=O)c12
Given back: 40 nM

Asked: Name the reported EC50 value associated with the molecule CCC[C@@H](C)Nc1nc(N)nc2ccn(Cc3ccc(C(=O)N4CCNCC4)cc3)c(=O)c12
Given back: 55 nM

Asked: Query (molecule): CCCCNc1nc(N)nc2ccn(Cc3ccc(CN4CCCC4)cc3)c(=O)c12 ; field requested: EC50
Given back: 81 nM

Asked: I have this molecule here, CCCCNc1nc(N)nc2ccn(Cc3ccc(C(=O)N4CCN(CCO)CC4)cc3OC)c(=O)c12 , and I need its recorded EC50.
Given back: 46 nM

Asked: Look up EC50 for this molecule: CCCC(CCC)Nc1nc(N)nc2ccn(Cc3ccc(C(=O)N4CCN(CCO)CC4)cc3OC)c(=O)c12
Given back: 70 nM

Asked: I'd like to know its EC50. The molecule in question is CCCC(CCC)Nc1nc(N)nc2ccn(Cc3ccc(C(=O)N4CCNCC4)cc3OC)c(=O)c12
Given back: 84 nM

Asked: What EC50 value was documented for this molecule, CCCCNc1nc(N)nc2ccn(Cc3ccc(C(=O)N4CCN(C)CC4)cc3OC)c(=O)c12 ?
Given back: 41 nM

Asked: # EC50 lookup, item CCC[C@@H](CCO)Nc1nc(N)nc2ccn(Cc3ccc(CN4CC5(COC5)C4)cc3)c(=O)c12
Given back: 70 nM

Asked: Please give the measured EC50 for this molecule: CCCC(CCC)Nc1nc(N)nc2ccn(Cc3ccc(C(=O)N4CCN(C)CC4)cc3OC)c(=O)c12
Given back: 70 nM

Asked: Please look up its EC50: CCCCNc1nc(N)nc2cc(C)n(Cc3ccc(CN4CCCC4)cc3)c(=O)c12
Given back: 145 nM

Asked: GET /values?readout=EC50&item= CCC[C@@H](CO)Nc1nc(N)nc2ccn(Cc3ccc(CNC)cc3OC)c(=O)c12
Given back: 86 nM

Asked: Query: EC50; subject: CCC[C@@H](C)Nc1nc(N)nc2ccn(Cc3ccc(CN4CCCC4)cc3OC)c(=O)c12
Given back: 30 nM

Asked: Which EC50 value is on record for CCC[C@@H](C)Nc1nc(N)nc2ccn(Cc3ccc(C(=O)N4CCN(CCO)CC4)cc3OC)c(=O)c12 ?
Given back: 23 nM

Asked: Value lookup for EC50; key = CCC[C@@H](C)Nc1nc(N)nc2ccn(Cc3ccc(CN4CCN(C)CC4)cc3OC)c(=O)c12
Given back: 91 nM

Asked: Give the measured EC50 of CCC[C@@H](CO)Nc1nc(N)nc2ccn(Cc3ccc(C(=O)N4CCN(C)CC4)cc3OC)c(=O)c12 .
Given back: 60 nM

Asked: Could you share which EC50 value was measured for CCC[C@@H](CO)Nc1nc(N)nc2ccn(Cc3ccc(CN4CCCC4)cc3C)c(=O)c12 ?
Given back: 70 nM

Asked: Item CCC[C@@H](C)Nc1nc(N)nc2ccn(Cc3ccc(CN(CCC)CCO)cc3OC)c(=O)c12 has what recorded EC50?
Given back: 40 nM

Asked: Would you kindly share the measured EC50 for CCC[C@@H](C)Nc1nc(N)nc2ccn(Cc3ccc(CN(CCO)CCO)cc3)c(=O)c12 ?
Given back: 50 nM

Asked: State the recorded EC50 for this entry: CCC[C@@H](C)Nc1nc(N)nc2ccn(Cc3ccc(CN4CCN(CCN)CC4)cc3OC)c(=O)c12
Given back: 100 nM

Asked: Would you mind telling me what EC50 value was observed for CCC[C@@H](CC)Nc1nc(N)nc2ccn(Cc3ccc(C(=O)N4CCNCC4)cc3)c(=O)c12 ?
Given back: 65 nM

The reported numbers originate from patent US20250059183A1.
